# Organism: Rattus norvegicus
# assay: DrugMatrix - Regimen: Daily Repeat
# Assay type: toxicity, organism-based, Sprague-Dawley
# Parameters: regimen Daily Repeat, gender Male, age 6-8 weeks
# applied conditions: in vivo, po, 0 mg/kg, 120 h, tissue Plasma, route oral GAVAGE, dose level Control, time 5 day, vehicle 100 % WATER
endpoint name: BLOOD UREA NITROGEN (mg/dL)

> print(dat)
                                    compound  quantitative.readout
 1                 Cc1ncc([N+](=O)[O-])n1CCO                 16.17
 2  CC(C)NCC(O)COc1cccc2ccccc12 (stereo not given)                    17
 3   C[N+](C)(C)CCO.[Cl-] [CHOLINE CHLORIDE]                  15.5
 4  CC(C)C[C@H](NC(=O)[C@@H](O)[C@H](N)Cc1ccccc1)C(=O)O                  16.5
 5  COC(=O)C1=C(C)NC(C)=C(C(=O)OCC(C)C)C1c1ccccc1[N+](=O)[O-] (stereo not given)                 14.17
 6  CC(C)(C)c1ccc(C(=O)CCCN2CCC(OC(c3ccccc3)c3ccccc3)CC2)cc1                 15.33
 7  COc1cc2ncnc(Nc3ccc(F)c(Cl)c3)c2cc1OCCCN1CCOCC1                 15.33
 8       Nc1ccn([C@@H]2CS[C@H](CO)O2)c(=O)n1                 15.83
 9  C[C@@H]1C[C@@H]([C@H](O)CC2CC(=O)NC(=O)C2)C(=O)[C@@H](C)C1 [CYCLOHEXIMIDE]                    17
10                    ClC(Cl)Cl [CHLOROFORM]                 16.17
